# Procedure Details: NCI Yeast Anticancer Drug Screen. Data for the bub3 strain (AID 167)
# Setup Conditions: S. cerevisiae bub3 mutant strain, at 50.0 µM
The panel holds about 79,000 compounds, 15% with a hit somewhere; the sample as a whole holds those more often. The source made the active and inactive calls. Cut-off read from the data, not from the text of the source: active = growth inhibition above about 70%; inactive = the rest.
I would appreciate it if you answered using one of these outcomes: active, inactive

- Molecule: "O=C(O/N=C1/CCC/C1=C\\c1ccccc1)c1ccccc1"
  Cat: "active"
- Molecule: "C/C(=N\\NC(=S)N1CCN(c2ccccn2)CC1)c1ncccn1"
  Cat: "active"
- Molecule: "C=CCOc1ccc2c(c1)CC=C1[C@@H]2CC[C@]2(C)C(=N\\O)/C(=N/O)C[C@@H]12"
  Cat: "active"

Now examine the next entry.
What classification did O=C(O)c1ccc2c3c(ncnc13)-c1ccccc1C2=O end up with in this test?
inactive

---

# Procedure Details: NCI Yeast Anticancer Drug Screen. Data for the mec2-1 strain (AID 157)
# Setup Conditions: S. cerevisiae mec2-1 strain, at 50.0 µM, stronger effect = higher value
Compounds without any hit were thinned out: in the full panel of roughly 79,000, 15% have a hit. Calls of active or inactive are those of the source. No stated cut-off is given here; in the data, active means growth inhibition above about 70%; inactive means the rest.
Measured Attribute: growth inhibition

Consider the reported growth inhibition for these compounds:
- Compound: "Cc1cccc2c1C1OC(=O)C3CCC=C2C31 (configuration not stated)"
  Measured Attribute: "growth inhibition"
  Measured Value: "53.9% (inactive)"
- Compound: "Oc1c(Cl)cc(Cl)c2cccnc12"
  Measured Attribute: "growth inhibition"
  Measured Value: "99.2% (active)"
- Compound: "Nc1nnc(-c2cc([N+](=O)[O-])cc([N+](=O)[O-])c2)o1"
  Measured Attribute: "growth inhibition"
  Measured Value: "14.6% (inactive)"
- Compound: "S=C(NCCNC(=S)[S][Sn]([c]1ccccc1)([c]1ccccc1)[c]1ccccc1)[S][Sn]([c]1ccccc1)([c]1ccccc1)[c]1ccccc1"
  Measured Attribute: "growth inhibition"
  Measured Value: "90.8% (active)"

Complete the entry with growth inhibition for CN(Cc1ccccc1)c1nc(=[N+](C)C)ss1
8.8% (inactive)

Complete the entry with growth inhibition for O=C1NC(=O)N(c2ccc([N+](=O)[O-])cc2)C1=O
1.1% (inactive)

Complete the entry with growth inhibition for OC(CNc1ccnc2cc(Cl)ccc12)CNc1ccnc2cc(Cl)ccc12
23.1% (inactive)

---

# Procedure Details: NCI Yeast Anticancer Drug Screen. Data for the bub3 strain (AID 167)
# Setup Conditions: S. cerevisiae bub3 mutant strain, at 50.0 µM
The panel holds about 79,000 compounds, 15% with a hit somewhere; the sample as a whole holds those more often. Active and inactive are the calls of the source. Rule as the data show it: active = growth inhibition above about 70%; inactive = the rest.
I would appreciate it if you answered using one of these outcomes: active, inactive

- Molecule: "CCN(CC)CCN1C(=O)c2c(c3c4cccc(Cl)c4n(C4OC(CO)C(OC)C(O)C4O)c3c3[nH]c4c(Cl)cccc4c23)C1=O (stereo not given)"
  Cat: "active"
- Molecule: "O=C(CC(=O)c1ccccc1)CC1(O)CCCCC1"
  Cat: "active"
- Molecule: "CCCCCC=C(c1cc(Br)cc(C(=O)O)c1O)c1cc(Br)cc(C(=O)O)c1O"
  Cat: "inactive"

What classification did CC([N+](=O)[O-])C1(O)C(=O)c2cccc3cccc1c23 (stereo not given) end up with in this test?
inactive

What classification did COC(=O)c1nc(=S)[nH]c(C(=O)OC)c1C(=O)c1ccccn1 end up with in this test?
active
